Target: T1, cynomolgus (Macaca fascicularis) ST2L extracellular domain with C-terminal His6 tag (Macaca fascicularis (cynomolgus), UniProt Q01638 19-321 (human entry))
T1 construct: also called cyno ST2L-ECD; cynoST2L-ECD
T1 chain: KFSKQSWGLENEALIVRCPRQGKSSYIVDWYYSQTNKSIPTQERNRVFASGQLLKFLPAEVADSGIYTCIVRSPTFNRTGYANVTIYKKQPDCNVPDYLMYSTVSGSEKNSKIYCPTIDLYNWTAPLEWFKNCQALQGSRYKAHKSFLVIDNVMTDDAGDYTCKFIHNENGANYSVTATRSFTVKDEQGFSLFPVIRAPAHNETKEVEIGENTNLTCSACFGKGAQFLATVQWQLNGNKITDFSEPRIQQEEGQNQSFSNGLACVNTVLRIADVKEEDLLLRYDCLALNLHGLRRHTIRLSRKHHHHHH
Assay: SPR, mAb captured, ST2L-ECD in solution
Consider the following binders and their measured kon readings.
Reported property: kon (M⁻¹ s⁻¹)

binder="C2519 (antibody, V domains shown, Mouse hybridoma antibody; also called C2519A) VH: EFQLQQSGPELVKPGASVKISCKASGYSFTDYNMNWVKQSHGKSLEWIGNINPYYGSTTYNQKFKGKATLTVDKSSNTAYMHLNSLTSEDSAVYYCAREGDTYLAWFAYWGQGTLVTVSA VL: DVLMTQTPLSLPVSLGDQASISCRSSQSIVYSNGNTYLEWYLQKPGQSPKLLIYKVSNRFSGVPDRFSGSGSGTDFTLKISRVEAEDLGVYYCFQGSHVPPTFGGGTKLEIK" unit_tag="M⁻¹ s⁻¹" value_reported=71400
binder="STLM15 (antibody, human IgG2, V domains shown, Mouse hybridoma C2244 cloned into human IgG2 background (STLM15); also called C2244) VH: EVQLQESGPGLVKPSQSLSLTCTVTGFSITSDYAWNWIRQFPGSKLEWMGFISYSGDTSFNPSLKSRISVTRDTSKNQFFLQLNSVTTEDTATYYCASYDGYSFDYWGQGTTLTVSS VL: DIVLTQSPASLAISLGQRATISCRASKSVSTSGSSYMFWYQQKPGQPPKLLIYLASNLESGVPARFSGSGSGTDFTLNIHPVEEEDAAAYYCQHSREIPYTFGGGTKLEIK" unit_tag="M⁻¹ s⁻¹" value_reported=4.81e+06
binder="C2521 (antibody, V domains shown, Mouse hybridoma antibody; also called C2521A) VH: QIQLQQSGPELVRPGTSVKISCKASGYTFLTYWMNWVKQRPGQGLEWIGQIFPASGSTYYNEMFKDKATLTVDTSSSTAYMQLSSLTSEDTAVYFCARSENIYYINFQYYFAYWGQGTTLTVSS VL: ILLTQSPAILSVSPGERVSFSCRASQNIGTRMHWYQQRTNGSPRLLIKYASESISGIPSRFSGSGSGTDFTLTISSVESEDIADYYCQQSNTWPFTFGSGTKLEIK" unit_tag="M⁻¹ s⁻¹" value_reported=447000
